Attribution: patent US5177082A

# MEASUREMENT DESCRIPTION: in vivo
# EXPERIMENTAL CONTEXT: rat, iv
ENDPOINT LABEL: clearance (mL/min/kg)
Lab book: enter the figure in mL/min/kg, no units written.

## Input Consider the compound C/C=C1\[C@H]2C=C(C)C[C@]1(N)c1ccc(=O)[nH]c1C2 and give its measured clearance.
## Output 21.2

====

# MEASUREMENT DESCRIPTION: in vivo
# EXPERIMENTAL CONTEXT: rat, iv, K10, iv 375 μCi/kg, rat blood
ENDPOINT LABEL: k el (s⁻¹)
Lab book: enter the figure in s⁻¹, no units written.

## Input Consider the molecule C/C=C1\[C@H]2C=C(C)C[C@]1(N)c1ccc(=O)[nH]c1C2 and give its measured k el.
## Output 0.00034

====

# ASSAY TARGET: pseudocholinesterase (Rattus norvegicus, UniProt Q9JKC1)
# Construct: 0.1 ml of rat blood serum; from tissue; host or cells: rat blood serum
# Sequence (Q9JKC1 24-597): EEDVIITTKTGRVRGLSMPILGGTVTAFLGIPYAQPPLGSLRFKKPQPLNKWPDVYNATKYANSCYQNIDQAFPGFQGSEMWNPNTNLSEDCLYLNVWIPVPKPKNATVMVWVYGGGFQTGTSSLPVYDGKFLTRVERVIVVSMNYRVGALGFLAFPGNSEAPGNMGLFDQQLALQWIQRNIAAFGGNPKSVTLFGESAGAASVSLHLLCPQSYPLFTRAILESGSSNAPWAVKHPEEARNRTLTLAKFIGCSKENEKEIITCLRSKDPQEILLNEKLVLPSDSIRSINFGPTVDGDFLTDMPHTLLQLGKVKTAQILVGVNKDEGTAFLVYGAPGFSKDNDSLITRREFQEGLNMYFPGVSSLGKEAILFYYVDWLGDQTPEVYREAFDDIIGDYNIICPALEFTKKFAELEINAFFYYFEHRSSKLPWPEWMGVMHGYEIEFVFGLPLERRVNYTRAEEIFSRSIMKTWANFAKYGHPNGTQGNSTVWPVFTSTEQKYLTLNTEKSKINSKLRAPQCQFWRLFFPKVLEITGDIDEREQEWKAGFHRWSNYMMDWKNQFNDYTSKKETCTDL
# MEASUREMENT DESCRIPTION: biochemical
# EXPERIMENTAL CONTEXT: 0.4 mM S-butyrylthiocholine iodide; read-out: Inhibition of Cholinesterase (pI50), Blood serum (converted)
ENDPOINT LABEL: IC50 (µM)
Lab book: enter the figure in µM, no units written.

>>> observed("CCC1[C@H]2Cc3[nH]c(=O)ccc3[C@@]1(N)CC(C)C2 (stereo partly shown) [tetrahydro-huperzine A]")
50.1
>>> observed("CCC1[C@H]2C=C(C)C[C@]1(N)c1ccc(=O)[nH]c1C2 (stereo partly shown) [11,12-dihydro-huperzine A]")
12.6
>>> observed("CC1=C[C@H]2Cc3[nH]c(=O)ccc3[C@@]3(C1)[C@@H]2CCCN3C")
316

Consider the record given below.
## Input Consider the compound CN(C)C(=O)Oc1cccc([N+](C)(C)C)c1 [Neostigmine, reference compound] and give its measured IC50.
## Output 3.55

====

# MEASUREMENT DESCRIPTION: in vivo
# EXPERIMENTAL CONTEXT: rat, iv, Vc, iv 375 μCi/kg, rat blood
ENDPOINT LABEL: Vd (L/kg)
Lab book: enter the figure in L/kg, no units written.

## Input Consider the molecule C/C=C1\[C@H]2C=C(C)C[C@]1(N)c1ccc(=O)[nH]c1C2 and give its measured Vd.
## Output 1.04

====

# MEASUREMENT DESCRIPTION: in vivo
# EXPERIMENTAL CONTEXT: rat, iv, Vd, iv 375 μCi/kg, rat blood
ENDPOINT LABEL: Vd (L/kg)
Lab book: enter the figure in L/kg, no units written.

## Input Consider the compound C/C=C1\[C@H]2C=C(C)C[C@]1(N)c1ccc(=O)[nH]c1C2 and give its measured Vd.
## Output 3.66

====

# ASSAY TARGET: pseudocholinesterase (Rattus norvegicus, UniProt Q9JKC1)
# Construct: 0.1 ml of rat blood serum; from tissue; host or cells: rat blood serum
# MEASUREMENT DESCRIPTION: biochemical
ENDPOINT LABEL: pIC50
Give only the number. pIC50 is defined as minus log10 of concentration in molar units.

## Input Field: pIC50 (pseudocholinesterase (Rattus norvegicus, UniProt Q9JKC1)). Entry: CNC(=O)Oc1ccc2c(c1)[C@]1(C)CCN(C)[C@@H]1N2C [Physostigmine, reference compound]
## Output 5.95

## Input Then what about the compound CC1=C[C@H]2Cc3[nH]c(=O)ccc3[C@]3(C1)NCCC[C@H]23 ?
## Output 3.70

====

Listing of entries alongside the reported IC50.
# ASSAY TARGET: true cholinesterase (Rattus norvegicus, UniProt P37136)
# Sequence (P37136-2 with tags, fused parts or gaps limits assumed): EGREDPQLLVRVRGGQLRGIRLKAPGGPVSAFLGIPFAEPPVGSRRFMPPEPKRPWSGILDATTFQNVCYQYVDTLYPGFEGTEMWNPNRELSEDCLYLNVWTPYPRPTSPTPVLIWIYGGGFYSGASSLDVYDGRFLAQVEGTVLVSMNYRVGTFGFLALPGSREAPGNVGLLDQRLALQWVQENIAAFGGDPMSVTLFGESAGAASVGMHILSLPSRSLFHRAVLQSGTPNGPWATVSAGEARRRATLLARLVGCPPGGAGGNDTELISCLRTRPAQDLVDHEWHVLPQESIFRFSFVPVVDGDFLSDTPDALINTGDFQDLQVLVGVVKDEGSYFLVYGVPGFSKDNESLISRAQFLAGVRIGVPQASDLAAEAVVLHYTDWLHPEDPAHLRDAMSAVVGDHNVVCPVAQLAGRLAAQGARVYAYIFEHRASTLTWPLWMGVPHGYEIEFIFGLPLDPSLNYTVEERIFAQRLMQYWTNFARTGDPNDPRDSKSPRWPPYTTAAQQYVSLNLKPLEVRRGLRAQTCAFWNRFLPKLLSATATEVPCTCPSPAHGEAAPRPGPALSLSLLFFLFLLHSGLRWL
# MEASUREMENT DESCRIPTION: biochemical
# Set-up: Red blood cell membranes of rats; from tissue; host or cells: rat red blood cell membranes

Past entries and their recorded results:
>>> observed("CCC1[C@H]2C=C(C)C[C@]1(N)c1ccc(=O)[nH]c1C2 (stereo partly drawn) [11,12-dihydro-huperzine A]")
"631 nM"
>>> observed("C/C=C1\\[C@H]2C=C(C)C[C@]1(N(C)C)c1ccc(=O)[nH]c1C2 [N-dimethyl huperzine A]")
"158000 nM"

Consider the record given below.
## Input Consider the compound CC1=C[C@H]2Cc3[nH]c(=O)ccc3[C@]3(C1)NCCC[C@H]23 [Huperzine B] and give its measured IC50.
## Output 501 nM

====

# ASSAY TARGET: true cholinesterase (Rattus norvegicus)
# MEASUREMENT DESCRIPTION: biochemical
# Set-up: Red blood cell membranes of rats; from tissue; host or cells: rat red blood cell membranes
# EXPERIMENTAL CONTEXT: 0.3 mM S-acetylthiocholine iodide; read-out: Inhibition of Cholinesterase (pI50), Red Blood Cells (converted)
ENDPOINT LABEL: IC50 (µM)
Lab book: enter the figure in µM, no units written.

Past entries and their recorded results:
>>> observed("CCC1[C@H]2Cc3[nH]c(=O)ccc3[C@@]1(N)CC(C)C2 (stereo partly shown) [tetrahydro-huperzine A]")
2.51
>>> observed("C/C=C1\\[C@H]2C=C(C)C[C@]1(N(C)C)c1ccc(=O)n(C)c1C2 [N-trimethyl-huperzine A]")
316

Consider the record given below.
## Input Field: IC50 (true cholinesterase (Rattus norvegicus)). Entry: CN(C)C(=O)Oc1cccc([N+](C)(C)C)c1 [Neostigmine, reference compound]
## Output 0.224

====

# MEASUREMENT DESCRIPTION: in vivo
# EXPERIMENTAL CONTEXT: rat, iv, t1/2β, iv 375 μCi/kg, rat blood
ENDPOINT LABEL: half-life (h)
Lab book: enter the figure in h, no units written.

## Input Consider the compound C/C=C1\[C@H]2C=C(C)C[C@]1(N)c1ccc(=O)[nH]c1C2 [3H-Huperzine A] and give its measured half-life.
## Output 1.99

====

# MEASUREMENT DESCRIPTION: in vivo
# EXPERIMENTAL CONTEXT: rat, iv, t1/2α, iv 375 μCi/kg, rat blood
ENDPOINT LABEL: half-life
Just so you know, I need the unit written after the number.

## Input Consider the compound C/C=C1\[C@H]2C=C(C)C[C@]1(N)c1ccc(=O)[nH]c1C2 and give its measured half-life.
## Output 5.4 min
